Test system: KM12 colon
Assay: NCI-60 one-dose screen, 48 h (100 = growth as untreated, 0 = no growth, -100 = all killed)
Details: 10 µM unless noted
Compounds without any hit were thinned out: in the full panel of roughly 83,000, 20% have a hit.
Quick rule: growth of at least 50% means 1.0, below that means 0.0.

[
  {
    "molecule": "C/C(=C\\C(=O)c1ccc(Cl)cc1)c1ccc(Cl)cc1",
    "target of assay": "KM12 colon",
    "label class": 0.0
  },
  {
    "molecule": "CCOC(=O)c1cn2ncnc(Oc3ccc(NC(=O)NCCN4CCOCC4)c(Cl)c3)c2c1C",
    "target of assay": "KM12 colon",
    "label class": 1.0
  },
  {
    "molecule": "Cc1ccc(-c2cnc3sc(C(=O)NCCc4ccccc4)c(C)n23)cc1",
    "target of assay": "KM12 colon",
    "label class": 1.0
  },
  {
    "molecule": "CCCCNC(=O)Oc1ccc(/C(=C(\\C)c2ccc(Cl)cc2)c2ccc(OCCN3CCCCC3)cc2)cc1",
    "target of assay": "KM12 colon",
    "label class": 1.0
  },
  {
    "molecule": "NCCCNc1nc2ccccc2c2c(=O)c3cc(OC(F)(F)F)ccc3sc12",
    "target of assay": "KM12 colon",
    "label class": 0.0
  },
  {
    "molecule": "COc1c(C2CC(=O)Nc3c2c(C)nn3-c2nc3ccccc3[nH]2)cc2c(c1OC)OCO2 (configuration not stated)",
    "target of assay": "KM12 colon",
    "label class": 0.0
  },
  {
    "molecule": "CCN1C(=O)N(CC)C2Nn3c(s/c(=C4\\C(=O)Nc5ccccc54)c3=O)=NC21 (configuration not stated)",
    "target of assay": "KM12 colon",
    "label class": 0.0
  },
  {
    "molecule": "O=C(Nc1ccc(OS(=O)(=O)c2ccc(F)cc2)cc1)c1ccc(Cl)cc1",
    "target of assay": "KM12 colon",
    "label class": 1.0
  },
  {
    "molecule": "O=CN1N=C(c2ccc(Nc3ccnc4cc(Cl)ccc34)cc2)CC1c1ccccc1 (configuration not stated)",
    "target of assay": "KM12 colon",
    "label class": 0.0
  },
  {
    "molecule": "COc1cccc(-c2nc(-c3ccc(NC(=O)c4ccccc4)cc3)[nH]c2-c2ccnc(Br)c2)c1",
    "target of assay": "KM12 colon",
    "label class": 0.0
  },
  {
    "molecule": "Cn1cc(-c2ccc3cc(-c4ccc(CC(=O)Nc5cc(C(C)(C)C)nn5C)cc4)cnc3c2)cn1",
    "target of assay": "KM12 colon",
    "label class": 0.0
  },
  {
    "molecule": "CCCCCCCCCCCCCCCCCCOc1ccccc1CCCOP(=O)(O)OCC[N+](C)(C)C",
    "target of assay": "KM12 colon",
    "label class": 0.0
  }
]

* * *

Measured growth accompanies every entry in the list below.
Test system: RPMI-8226 leukemia
Test: NCI-60 one-dose screen, 48 h (100 = growth as untreated, 0 = no growth, -100 = all killed)
Settings: 10 µM unless noted
About 83,000 compounds went through this panel and 20% of them were active in at least one assay; those are over-represented in the sample as a whole.
experimental endpoint: growth (%)

[
  {
    "compound": "NS(=O)(=O)c1ccc(N=Nc2ccc(-c3nn4cc(-c5ccccc5)nc4s3)cc2)cc1",
    "target of assay": "RPMI-8226 leukemia",
    "endpoint unit": "%",
    "measured result": 105
  },
  {
    "compound": "O=C(Cc1ccc(F)c(Cl)c1)Nc1cc(C2(C(F)(F)F)CC2)nn1CC1CCCCC1",
    "target of assay": "RPMI-8226 leukemia",
    "endpoint unit": "%",
    "measured result": 4.24
  },
  {
    "compound": "CC(=O)N1N=C(c2ccc(Nc3nc(Nc4ccc(F)cc4)nc(Nc4ccc(Cl)cc4)n3)cc2)CC1c1ccc(Cl)cc1 (stereo not given)",
    "target of assay": "RPMI-8226 leukemia",
    "endpoint unit": "%",
    "measured result": 82.7
  },
  {
    "compound": "Cc1nc2ccccc2c(/C=C/c2ccc(Cl)cc2)c1C(=O)/C=C/c1ccc(C(F)(F)F)cc1",
    "target of assay": "RPMI-8226 leukemia",
    "endpoint unit": "%",
    "measured result": -30.7
  },
  {
    "compound": "Cc1ccc(S(=O)(=O)N/N=C/C2(c3ccccc3)CC2)cc1",
    "target of assay": "RPMI-8226 leukemia",
    "endpoint unit": "%",
    "measured result": 96.9
  },
  {
    "compound": "COc1cc(C2CC(c3cccc(Br)c3)=NN2C(C)=O)cc(OC)c1OC (stereo not given)",
    "target of assay": "RPMI-8226 leukemia",
    "endpoint unit": "%",
    "measured result": 4.29
  },
  {
    "compound": "Cc1oc2nc[nH]c(=O)c2c1C(=O)/C=C/c1ccc(Br)cc1",
    "target of assay": "RPMI-8226 leukemia",
    "endpoint unit": "%",
    "measured result": -3.59
  },
  {
    "compound": "Cc1nc(/N=C(\\N)NC(=O)Nc2cccc(Cl)c2)sc1C",
    "target of assay": "RPMI-8226 leukemia",
    "endpoint unit": "%",
    "measured result": 77
  },
  {
    "compound": "Cc1ccc(C(=O)N/N=C/c2cccc([N+](=O)[O-])c2)cn1",
    "target of assay": "RPMI-8226 leukemia",
    "endpoint unit": "%",
    "measured result": 93
  },
  {
    "compound": "C[N+]1=C(/C=C/c2ccc(O)c3ncccc23)C(C)(C)c2ccccc21",
    "target of assay": "RPMI-8226 leukemia",
    "endpoint unit": "%",
    "measured result": 53.6
  },
  {
    "compound": "CCCCN(C)N=Nc1ccc(C(N)=O)cc1",
    "target of assay": "RPMI-8226 leukemia",
    "endpoint unit": "%",
    "measured result": 114
  },
  {
    "compound": "Cn1cc(-c2ccc3cc(-c4ccc(CC(=O)Nc5cc(C(C)(C)C)nn5C)cc4)cnc3c2)cn1",
    "target of assay": "RPMI-8226 leukemia",
    "endpoint unit": "%",
    "measured result": 3.3
  },
  {
    "compound": "O=c1n(Cc2ccc3ccccc3c2)ccn1Cc1ccc2ccccc2c1",
    "target of assay": "RPMI-8226 leukemia",
    "endpoint unit": "%",
    "measured result": 104
  },
  {
    "compound": "COc1cccc(OC)c1C(=O)N[C@@H]1C(=O)N2[C@@H]1SC(C)(C)[C@@H]2C(=O)O",
    "target of assay": "RPMI-8226 leukemia",
    "endpoint unit": "%",
    "measured result": 102
  },
  {
    "compound": "COc1ccc(C(Cc2ccccc2)NCCN2CCOCC2)cc1 (stereo not given)",
    "target of assay": "RPMI-8226 leukemia",
    "endpoint unit": "%",
    "measured result": 109
  },
  {
    "compound": "COC(=O)c1ccc2[nH]c(O)c(C(=Nc3ccc(N(C)C(=O)CN4CCN(C)CC4)cc3)c3ccccc3)c2c1",
    "target of assay": "RPMI-8226 leukemia",
    "endpoint unit": "%",
    "measured result": -6.02
  },
  {
    "compound": "CCCCC1CCCC12NC(=O)NC2=O (stereo not given)",
    "target of assay": "RPMI-8226 leukemia",
    "endpoint unit": "%",
    "measured result": 101
  },
  {
    "compound": "Cc1cc2[nH]c(=O)c3c4ncccc4cn3c2cc1C",
    "target of assay": "RPMI-8226 leukemia",
    "endpoint unit": "%",
    "measured result": 2.89
  },
  {
    "compound": "O=C1CSC(c2c(Cl)cccc2Cl)N1c1nc(Cl)cc(=O)[nH]1 (stereo not given)",
    "target of assay": "RPMI-8226 leukemia",
    "endpoint unit": "%",
    "measured result": 58.7
  },
  {
    "compound": "CC(C)n1cnc2c(Nc3cccc(Cl)c3)nc(N[C@H]3CCCC[C@@H]3N)nc21",
    "target of assay": "RPMI-8226 leukemia",
    "endpoint unit": "%",
    "measured result": 19.8
  },
  {
    "compound": "COc1ccc(-c2conc2-c2ccccc2)cc1",
    "target of assay": "RPMI-8226 leukemia",
    "endpoint unit": "%",
    "measured result": 32.7
  },
  {
    "compound": "CCCCCCNC(=O)Oc1ccc(/C(=C(\\C)c2ccc(Cl)cc2)c2ccc(OCCN(CC)CC)cc2)cc1",
    "target of assay": "RPMI-8226 leukemia",
    "endpoint unit": "%",
    "measured result": 51.6
  },
  {
    "compound": "S=C(c1cccs1)N1CCN(c2cccc(Cl)c2)CC1",
    "target of assay": "RPMI-8226 leukemia",
    "endpoint unit": "%",
    "measured result": 86.3
  },
  {
    "compound": "CN(C)c1ccc2nc3ccc(=[N+](C)C)c([N+](=O)[O-])c-3sc2c1",
    "target of assay": "RPMI-8226 leukemia",
    "endpoint unit": "%",
    "measured result": 21.5
  },
  {
    "compound": "COc1ccc(-c2[nH]ncc2-c2cc3c(c(OC)c2)OCC(=O)N3)cc1",
    "target of assay": "RPMI-8226 leukemia",
    "endpoint unit": "%",
    "measured result": 29.3
  },
  {
    "compound": "NS(=O)(=O)c1ccc(-n2nc(-c3ccc(Cl)cc3)c3ccccc3c2=O)cc1",
    "target of assay": "RPMI-8226 leukemia",
    "endpoint unit": "%",
    "measured result": 84.6
  },
  {
    "compound": "COc1ccc(C(=O)C[C@]2(O)C(=O)Nc3c(Cl)ccc(Cl)c32)cc1",
    "target of assay": "RPMI-8226 leukemia",
    "endpoint unit": "%",
    "measured result": 20.1
  },
  {
    "compound": "COc1ccc(N2C(=O)C(Oc3ccccc3)C2c2ccc(C)cc2)cc1 (stereo not given)",
    "target of assay": "RPMI-8226 leukemia",
    "endpoint unit": "%",
    "measured result": 106
  },
  {
    "compound": "Cc1cc(N2CCCC2)nc(N(CCCNc2ccnc3cc(Cl)ccc23)Cc2ccccn2)n1",
    "target of assay": "RPMI-8226 leukemia",
    "endpoint unit": "%",
    "measured result": 28
  },
  {
    "compound": "Cc1nc(NC(=O)COc2ccc(/C=C3\\Cc4ccc(Cl)cc4C3=O)cc2)sc1C",
    "target of assay": "RPMI-8226 leukemia",
    "endpoint unit": "%",
    "measured result": 103
  }
]
